Target: UniProtKB P35414
Sequence (P35414 1-380): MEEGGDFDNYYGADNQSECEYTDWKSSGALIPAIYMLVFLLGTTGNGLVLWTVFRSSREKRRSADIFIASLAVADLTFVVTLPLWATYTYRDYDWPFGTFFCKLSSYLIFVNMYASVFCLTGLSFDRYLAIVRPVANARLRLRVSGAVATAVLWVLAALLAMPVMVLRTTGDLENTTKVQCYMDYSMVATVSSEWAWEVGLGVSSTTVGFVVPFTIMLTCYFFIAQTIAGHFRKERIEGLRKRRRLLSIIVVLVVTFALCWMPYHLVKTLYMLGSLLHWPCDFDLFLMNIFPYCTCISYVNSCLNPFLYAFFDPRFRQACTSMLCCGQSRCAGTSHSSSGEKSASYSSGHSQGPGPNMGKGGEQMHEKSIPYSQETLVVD
Assay: Measurement of apelin receptor agonist activity (cell-based assay determining the amount of intracellular cAMP)
Settings: CHO cells stably expressing the human apelin receptor, Forskolin 10 μM, 30 minutes, 100% efficacy = [Pyr1]-apelin-13 0.300 μM, concentration giving 50% efficacy
observed.property: EC50 (nM)

Study these solved cases before continuing.
# compound, observed.property, result
records = [
    ("COc1cccc(OC)c1-n1c(SCc2cccc(C(N)=O)c2)nnc1-c1ccc(C)o1 [Example 106]", "EC50", 793),
    ("COc1cccc(OC)c1-n1c(SCC(=O)O)nnc1-c1ccoc1 [Example 62]", "EC50", 808),
]

A = COc1cccc(OC)c1-n1c(CS(=O)(=O)c2nnc[nH]2)nnc1-c1ccc(C)o1 [Example 69]
B = COc1cccc(OC)c1-n1c(CC#N)nnc1-c1ccc(C)o1 [Example 73]
Query: Exercise: compare A and B ; which one has the greater EC50? Answer with the label corresponding to your selection.
Response: B
